Measured viability, T/C, listed per entry.
Tested on: 556581-035-R-J1-PDC complex spheroid growth;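 also: spheroids exposed to agents for 7 days before viability read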
test summary: Anticancer human tumor 556581-035-R-J1-PDC patient-derived ovarian carcinoma cell line growth inhibition [Asc]
stated conditions: second compound 3.16 µM; first compound 0.0316 µM; active compounds read low
From the text: Multicellular complex tumor spheroid response to apoptosis pathway targeting inhibitors Alrizomadlin, Pelcitoclax, and Dasminapant in combination with a variety of drugs and investigational agents in selected tumor cell lines […] Compounds. […] If the clinical Cmax for an agent had not been determined, the highest concentration tested was 10 microM. […]
State the answer as a number, implicitly in %.

Reference set, count: 5
compound	readout units	viability, T/C
C#Cc1c(F)ccc2cc(O)cc(-c3ncc4c(N5CC6CCC(C5)N6)nc(OCC56CCCN5CC(F)C6)nc4c3F)c12 (configuration not stated) + Cc1c(S(C)(=O)=O)c(-c2cc(F)cc(N3CCN(c4ccc(NS(=O)(=O)c5ccc(NC(CCN6CCC(C(=O)OCCCP(=O)(O)O)CC6)CSc6ccccc6)c(S(=O)(=O)C(F)(F)F)c5)cc4)CC3)c2)c(-c2ccc(Cl)cc2)n1C(C)C	%	51.7
C=C(F)C(=O)N1CCN(c2nc(OCC3CCCN3C)nc3c2CCN(c2cccc4cccc(Cl)c24)C3)CC1CC#N (configuration not stated) + Cc1c(S(C)(=O)=O)c(-c2cc(F)cc(N3CCN(c4ccc(NS(=O)(=O)c5ccc(NC(CCN6CCC(C(=O)OCCCP(=O)(O)O)CC6)CSc6ccccc6)c(S(=O)(=O)C(F)(F)F)c5)cc4)CC3)c2)c(-c2ccc(Cl)cc2)n1C(C)C	%	63.1
CNC(C)C(=O)NC1CN(S(=O)(=O)c2cccc(S(=O)(=O)N3CCC4CCC(C(=O)NC(c5ccccc5)c5ccccc5)N4C(=O)C(NC(=O)C(C)NC)C3)c2)CCC2CCC(C(=O)NC(c3ccccc3)c3ccccc3)N2C1=O (configuration not stated) + Cc1c(S(C)(=O)=O)c(-c2cc(F)cc(N3CCN(c4ccc(NS(=O)(=O)c5ccc(NC(CCN6CCC(C(=O)OCCCP(=O)(O)O)CC6)CSc6ccccc6)c(S(=O)(=O)C(F)(F)F)c5)cc4)CC3)c2)c(-c2ccc(Cl)cc2)n1C(C)C	%	34.7
CCN1CCN(Cc2ccc(Nc3ncc(F)c(-c4cc(F)c5nc(C)n(C(C)C)c5c4)n3)nc2)CC1 + Cc1c(S(C)(=O)=O)c(-c2cc(F)cc(N3CCN(c4ccc(NS(=O)(=O)c5ccc(NC(CCN6CCC(C(=O)OCCCP(=O)(O)O)CC6)CSc6ccccc6)c(S(=O)(=O)C(F)(F)F)c5)cc4)CC3)c2)c(-c2ccc(Cl)cc2)n1C(C)C	%	90.1
O=C(c1ccc(F)c(F)c1Nc1ccc(I)cc1F)N1CC(O)([C@@H]2CCCCN2)C1 + Cc1c(S(C)(=O)=O)c(-c2cc(F)cc(N3CCN(c4ccc(NS(=O)(=O)c5ccc(NC(CCN6CCC(C(=O)OCCCP(=O)(O)O)CC6)CSc6ccccc6)c(S(=O)(=O)C(F)(F)F)c5)cc4)CC3)c2)c(-c2ccc(Cl)cc2)n1C(C)C	%	57.4

Query block: Determine from records and report viability, T/C for COc1c(OCCCN2CCOCC2)ccc2c3n(c(=NC(=O)c4cnc(N)nc4)nc12)CCN3 + Cc1c(S(C)(=O)=O)c(-c2cc(F)cc(N3CCN(c4ccc(NS(=O)(=O)c5ccc(NC(CCN6CCC(C(=O)OCCCP(=O)(O)O)CC6)CSc6ccccc6)c(S(=O)(=O)C(F)(F)F)c5)cc4)CC3)c2)c(-c2ccc(Cl)cc2)n1C(C)C
Result block: 41.7

Query block: Determine from records and report viability, T/C for NC1CCC(NC2CC2c2ccccc2)CC1 (configuration not stated) + Cc1c(S(C)(=O)=O)c(-c2cc(F)cc(N3CCN(c4ccc(NS(=O)(=O)c5ccc(NC(CCN6CCC(C(=O)OCCCP(=O)(O)O)CC6)CSc6ccccc6)c(S(=O)(=O)C(F)(F)F)c5)cc4)CC3)c2)c(-c2ccc(Cl)cc2)n1C(C)C
Result block: 71.9
